Values of IC50 reported for Receptor-type tyrosine-protein kinase FLT3 (Homo sapiens, UniProt P36888, ITD) appear below.
Measured Quantity: IC50 (nM)

NCCCNCCCCNc1ccc(Nc2nc(N[C@H]3CC[C@H](N)CC3)nc3c2ncn3C2CCCC2)cc1 | 6
NC(=O)c1ccc(Nc2nc(N[C@H]3CC[C@H](N)CC3)nc3c2ncn3C2CCCC2)cc1 | 2

1 = NCCCCNC(=O)c1ccc(Nc2nc(N[C@H]3CC[C@H](N)CC3)nc3c2ncn3C2CCCC2)cc1
2 = N[C@H]1CC[C@H](Nc2nc(NCc3ccccc3)c3ncn(C4CCCC4)c3n2)CC1
3 = NCCCNCCCCNCCCNc1ccc(Nc2nc(N[C@H]3CC[C@H](N)CC3)nc3c2ncn3C2CCCC2)cc1
Please list these molecules in decreasing order of IC50. # answer = labels listed in requested order
2, 3, 1
